# protocolSummary: qHTS assay to identify small molecule antagonists of the thyroid receptor (TR) signaling pathway (AID 743065); further: nearly all actives have a fitted effect of over 55% in size
# reportedConditions: GH3.TRE-Luc, T3-stimulated luciferase inhibition, 23.5 h; series mostly up to 70.3 µM
Inconclusive results are not listed. Activity calls are given as the source filed them. The call rests on the fitted dose curve; in most records, active means well fitted inhibition curve with a large enough effect in the repeat runs; inconclusive means weak or mixed curves; inactive means no such curve, though single readings can be large or run the other way.
Outcome (select one): active, inactive

Exercise: Just curious, what result did "Cn1c([N+](=O)[O-])cnc1COC(N)=O" get here?
Solution: inactive

Exercise: Now the compound CCCCC(CC)COC(=O)/C=C\C(=O)OCC(CC)CCCC (stereo not drawn)
Solution: inactive

Exercise: Same read-out for "O=C(c1ccc(O)cc1)c1ccc(O)cc1O" ?
Solution: inactive

Exercise: Here is the next compound: "O=C(O)c1cc(-c2ccccc2)nc2ccccc12"
Solution: inactive

Exercise: Now this one: "COCC(=O)O"
Solution: inactive

Exercise: Another compound to check: "O=S(=O)(O)CCS"
Solution: inactive

Exercise: # iterate: "NC(=O)NNc1ccccc1"
Solution: inactive

Exercise: Repeat for the following compound: "CC(C)Cc1ccccc1"
Solution: inactive

Exercise: Then what about the compound "Cc1cc(O)cc(C)c1Cl" ?
Solution: inactive

Exercise: Then what about the compound "CCc1ccccc1O" ?
Solution: inactive

Exercise: # repeat for CN(CCOc1ccc(CC2SC(=O)NC2=O)cc1)c1ccccn1 (stereo not drawn)
Solution: active

Exercise: Follow-up item: "S=c1nc[nH]c2nc[nH]c12"
Solution: inactive

Exercise: And for CC1=C(CC(=O)O)c2cc(F)ccc2/C1=C\c1ccc(S(C)=O)cc1 (stereo not drawn) ?
Solution: inactive

Exercise: # repeat for "C=CC(=O)OCCCCCCCC(C)C"
Solution: inactive

Exercise: Can you check CCCCC(CC)COC(=O)CCCCCCCC(=O)OCC(CC)CCCC (stereo not drawn) next?
Solution: inactive

Exercise: Okay, and "Nc1c(S(=O)(=O)O)cc(Br)c2c1C(=O)c1ccccc1C2=O" ?
Solution: inactive

Exercise: Another compound: "O=S(=O)(Oc1ccc(Cl)cc1Cl)c1ccccc1"
Solution: inactive

Exercise: Then this compound: "CC1(C)O[C@@H]2C[C@H]3[C@@H]4C[C@H](F)C5=CC(=O)CC[C@]5(C)[C@H]4[C@@H](O)C[C@]3(C)[C@]2(C(=O)CO)O1"
Solution: inactive

Exercise: Now try "COC(=O)c1ccccc1O" .
Solution: inactive

Exercise: Next record, please: "O=C(Oc1ccccc1)c1ccc(O)cc1"
Solution: inactive

Exercise: Let us now turn to "O=Nc1ccc(O)cc1"
Solution: inactive

Exercise: Do the same for "NCCNCCNCCNCCN" please
Solution: inactive

Exercise: Can you handle C=C1C2CCC(C2)C1(C)C (stereo not drawn) next?
Solution: inactive

Exercise: Okay, and "CCCCNC(N)=O" ?
Solution: inactive

Exercise: Also "COC(=O)c1ccc(C(=O)OC)cc1" , if possible.
Solution: inactive

Exercise: What do we get for "CCOC(=O)[C@H](CCc1ccccc1)N[C@@H](C)C(=O)N1Cc2ccccc2C[C@H]1C(=O)O" ?
Solution: inactive

Exercise: Another compound: CCCCC(CC)COC(C)=O (stereo not drawn)
Solution: inactive

Exercise: Same again, this time with "NCc1cccc(CN)c1"
Solution: inactive

Exercise: Item: "OCCOCCOCCOCCO"
Solution: inactive

Exercise: Also, "Clc1ccc(Cl)c(Cl)c1Cl" please.
Solution: inactive

Exercise: Next entry: "O=C(O)c1ccc([N+](=O)[O-])cc1"
Solution: inactive

Exercise: Thanks! And CC1Cc2ccccc2N1NC(=O)c1ccc(Cl)c(S(N)(=O)=O)c1 (stereo not drawn) ?
Solution: inactive

Exercise: How about this compound: "O=C(Cl)c1c(Cl)c(Cl)c(C(=O)Cl)c(Cl)c1Cl"
Solution: inactive

Exercise: Follow-up item: "Cc1cc(=O)[nH]c(C(C)C)n1"
Solution: inactive

Exercise: Continue with "CC(=O)CCc1ccccc1"
Solution: inactive

Exercise: And "Cc1cc(NS(=O)(=O)c2ccc(N)cc2)no1" ?
Solution: inactive

Exercise: Subsequent entry: "CN(C)c1cccc(O)c1"
Solution: inactive

Exercise: Same for "CCCCCCCCCC(=O)O"
Solution: inactive

Exercise: Also need "O=[N+]([O-])C(CO)(CO)CO" , thanks.
Solution: inactive

Exercise: Consider next the compound "ClC1=C(Cl)C(Cl)(Cl)C(Cl)=C1Cl" in the same way.
Solution: active

Exercise: Param item: "Cc1cc(Cc2ccc(N)c(C)c2)ccc1N"
Solution: inactive

Exercise: Please answer likewise for "CC(C)(N=C=O)c1cccc(C(C)(C)N=C=O)c1"
Solution: inactive

Exercise: Same question, "OC[C@@H](O)[C@H](O)[C@H](O)[C@@H](O)CO" this time
Solution: inactive

Exercise: Likewise for "Cc1ccc(N)c(S(=O)(=O)O)c1" ?
Solution: inactive

Exercise: And "O=C1CCCCC1" ?
Solution: inactive

Exercise: Try this compound next: "O=[N+]([O-])c1cccc(Cl)c1"
Solution: inactive

Exercise: And for "NC(=O)/N=N/C(N)=O" ?
Solution: inactive

Exercise: // next record "CC[Si](OC(C)=O)(OC(C)=O)OC(C)=O"
Solution: inactive

Exercise: Same read-out for "Cc1ccc(C(=O)O)o1" ?
Solution: inactive

Exercise: Thanks! And "CCCCOCCOCCOC(=O)CCCCC(=O)OCCOCCOCCCC" ?
Solution: inactive

Exercise: And for "CC1=CC[C@H]2C[C@@H]1C2(C)C" ?
Solution: inactive

Exercise: Try this compound too: "OC[C@@H](O)[C@@H](O)[C@H](O)[C@@H](O)CO"
Solution: inactive

Exercise: Could you do the same for "C=C(C)C(=O)OCCCCCC" , please?
Solution: inactive
